From: patent US20230086702A1

# TARGET_UNDER_TEST: LZK (Homo sapiens, UniProt O43283)
# Construct: 10 nM LZK, catalytic domain, Carna Biosiences in assay buffer; purchased Carna Biosciences ('Carna Biosiences' [sic])
# Sequence (O43283 168-409 limits assumed): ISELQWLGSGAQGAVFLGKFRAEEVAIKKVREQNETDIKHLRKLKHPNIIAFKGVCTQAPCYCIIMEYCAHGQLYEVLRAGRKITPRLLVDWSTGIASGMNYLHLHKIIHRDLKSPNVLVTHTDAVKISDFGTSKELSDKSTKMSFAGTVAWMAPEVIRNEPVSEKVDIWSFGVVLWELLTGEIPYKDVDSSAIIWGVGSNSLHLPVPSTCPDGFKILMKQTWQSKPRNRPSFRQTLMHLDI
# EXPERIMENTAL_PROTOCOL: LZK biochemical assay (TR-FRET, MKK7 phosphorylation)
# EXPERIMENTAL_CONDITIONS: LZK catalytic domain, MKK7 substrate, 15 μM ATP
In this section, each of the molecules is paired with its reported log10 of IC50.
Scale: log10; quantity: IC50; unit before log: nM

Consider the reported log10 of IC50 for these molecules:
CC[C@H](C)NC(=O)c1cc(-c2cnn(C(c3ccc(C(F)(F)F)nc3)C3CCOCC3)c2)cn2nc(N)nc12 (single isomer, unassigned) [Example I-78]
0.23
Nc1nc2c(C(=O)NC3CCC3)cc(-c3cnn(Cc4ccc(F)cc4)c3)cn2n1
2.38

Please indicate log10 of IC50 recorded for CC(C)(CO)NC(=O)c1cc(-c2cnn(C(c3ccc(C(F)(F)F)nc3)C3CCOCC3)c2)cn2nc(N)nc12 (racemic) [Example I-166]
1.30

Give the reported log10 of IC50 for this molecule. CC[C@H](C)NC(=O)c1cc(-c2cnn(C(c3ccc(OCC(F)(F)F)nc3)C3CC3)c2)cc2nc(N)nn12 (single isomer, unassigned) [Example I-120]
2.15

Identify the reported log10 of IC50 for the following entry. CCC(c1ccc(Cl)s1)n1cc(-c2cc(C(=O)N[C@@H](C)CC)c3nc(N)nn3c2)cn1 (single isomer, unassigned) [Example I-131]
1.52

Report log10 of IC50, nothing else, for this molecule: CC[C@H](C)NC(=O)c1cc(-c2cnn(C(c3ccc(C(F)(F)F)nc3)C(C)C)c2)cc2nc(N)nn12 (mixture of isomers) [Example I-104]
0.46

Return value of log10 of IC50 for input CCC(c1ccc(C(F)F)nc1)n1cc(-c2cc(C(=O)N[C@@H](C)CC)c3nc(N)nn3c2)cn1 (mixture of isomers) [Example I-64] , no commentary.
0.85

Identify measured log10 of IC50 associated with CC[C@H](C)NC(=O)c1cc(-c2cnn(C(c3ccc(OCC(F)(F)F)nc3)C(C)C)c2)cn2nc(N)nc12 (single isomer, unassigned) [Example I-89]
3.30

Write down log10 of IC50 measured for item CC[C@H](C)NC(=O)c1cc(-c2cnn(C(c3ccc(F)cc3)C(C)C)c2)cn2nc(N)nc12 (mixture of isomers) [Example I-43]
1.82

Supply log10 of IC50 value. Item: CC[C@H](C)NC(=O)c1cc(-c2cnn([C@@H](CC)c3ccc(F)cc3)c2)cc2nc(N)nn12 (single isomer, unassigned)
0.93

Tell me measured log10 of IC50 for CC(C)C(c1ccc(F)cc1)n1cc(-c2cc(C(=O)N[C@@H](C)CO)c3nc(N)nn3c2)cn1 (mixture of isomers) [Example I-160] please.
2.11

Could you please provide reported log10 of IC50 for CC(C)(CO)NC(=O)c1cc(-c2cnn(C(c3ccc(C(F)(F)F)nc3)C3CCOCC3)c2)cn2nc(N)nc12 (single isomer, unassigned) [Example I-167] ? Thanks!
1.93

Give log10 of IC50 for CC[C@H](C)NC(=O)c1cc(-c2cnn(C(c3ccccc3)C(C)(C)C)c2)cn2nc(N)nc12 (single isomer, unassigned) [Example I-35]
3.00

Report log10 of IC50, nothing else, for this molecule: CCC(c1ccnc(C(F)(F)F)c1)n1cc(-c2cc(C(=O)N[C@@H](C)CC)n3nc(N)nc3c2)cn1 (mixture of isomers)
0.87
